The values you see were collected from patent US11174267B2.

System: susceptible strain (HLY4123) of C. albicans
Test: Dose-response with fluconazole (0.25 μg/mL) against susceptible strain
Type: cell-based, Candida albicans
Conditions: with fluconazole 0.25 μg/mL; strain HLY4123
propertyLabel: EC50

Qu. Which EC50 value is on record for Cc1c(Cl)ccc2c1NC(=O)[C@@]21[C@H]2C(=O)N(c3ccccc3)C(=O)[C@H]2[C@H]2CN(C(=O)OC(C)(C)C)CCN21 (racemic) ?
Ans. 6 to 8 nM

====

Tested on: C. albicans
Assay: Drug susceptibility assay in combination with azole antifungals and other Cdr1/Mdr1 substrates
Assay type: cell-based, Candida albicans
Conditions: Candida albicans, MDR1, with isavuconazole 0.0006 μg/mL
propertyLabel: EC50 (nM)
# number only, unit nM dropped from output

Qu. Would you kindly share the measured EC50 for Cc1c(Cl)ccc2c1NC(=O)[C@@]21[C@H]2C(=O)N(c3ccccc3)C(=O)[C@H]2[C@H]2CN(C(=O)OCc3ccccc3)CCN21 (racemic) ?
Ans. 4
